// data source = paper PMC7023430

# Test system: Candida albicans ATCC 44859
# Experimental details: Antifungal microdilution broth method, C. albicans
# Assay type: cell-based
# Condition details: ATCC44859, 48 h, read-out: MIC CA 48 h
Lab note: anything with MIC below 60 µM is marked true; values at 60 µM or higher are marked false.

Request: Could you please tell me whether MIC recorded for O=C(O)c1ccc(NCc2ccccc2O)cc1 [1u, 4-[(2-Hydroxybenzyl)amino]benzoic acid] is less than 60 µM?
Response: false

Request: Could you please tell me whether MIC recorded for O=C(O)c1ccc(N=Cc2cc([N+](=O)[O-])ccc2O)cc1 [1f] is less than 60 µM?
Response: false

Request: MIC strictly < 60 µM for this molecule? O=C(O)c1ccc(N=Cc2cc(Cl)cc(Br)c2O)cc1 [1o]
Response: true

Request: Determine if O=C(O)c1ccc(N=Cc2cc(O)ccc2O)cc1 [1i] shows MIC strictly lower than 60 µM.
Response: false

Request: # strict comparison: is reported MIC < 60 µM? input = O=C(O)c1ccc(N=Cc2ccccc2O)cc1 [1a]
Response: false

Request: Record Nc1ccc(C(=O)O)cc1 [PABA 1, 4-aminobenzoic acid] : is its MIC strictly below 60 µM?
Response: false

Request: Strictly below 60 µM in MIC? O=C(O)c1ccc(N=Cc2ccc(Cl)cc2O)cc1 [1l]
Response: false

Request: Lab note: MIC threshold 60 µM. Does this molecule come in strictly under it? O=C(O)c1ccc(N=Cc2c(O)cccc2Cl)cc1 [1k]
Response: false

Request: In the record for O=C(O)c1ccc(N=Cc2cc(Br)ccc2O)cc1 [1d] , is MIC less than 60 µM?
Response: false

Request: Criterion: MIC strictly below 60 µM. Is it met by O=C(O)c1ccc(N=Cc2ccc([N+](=O)[O-])o2)cc1 [1r] ?
Response: false

Request: MIC under 60 µM? Item: O=C(O)c1ccc(N=Cc2ccc(O)cc2)cc1 [1t]
Response: false

Request: In plain terms, does O=C(O)c1ccc(N=Cc2cc(I)cc(I)c2O)cc1 [1q] come in under 60 µM for MIC?
Response: true

Request: Decide: MIC of COc1ccccc1C=Nc1ccc(C(=O)O)cc1 [1s] strictly below 60 µM?
Response: false

Request: Is MIC of O=C(O)c1ccc(N=Cc2cc(F)ccc2O)cc1 [1b] strictly below 60 µM?
Response: false

Request: Strictly below 60 µM: is that where MIC of O=C(O)c1ccc(N=Cc2cc(Cl)cc(I)c2O)cc1 [1p] sits?
Response: true

Request: Threshold test, MIC < 60 µM: COc1ccc(O)c(C=Nc2ccc(C(=O)O)cc2)c1 [1h]
Response: false

Request: Just wondering, is MIC of O=C(O)c1ccc(N=Cc2cc(I)ccc2O)cc1 [1e] below 60 µM?
Response: false

Request: Find out if reported MIC for CC(C)(C)c1ccc(O)c(C=Nc2ccc(C(=O)O)cc2)c1 [1j] is less than 60 µM
Response: false

Request: Below 60 µM on MIC? Entry O=C(O)c1ccc(N=Cc2cc(Cl)ccc2O)cc1 [1c]
Response: false

Request: Given the entry O=C(O)c1ccc(N=Cc2cccc(Cl)c2O)cc1 [1m] , would its reported MIC be below 60 µM?
Response: true

Request: Strictly below 60 µM: is that where MIC of O=C(O)c1ccc(N=Cc2cc(Cl)cc(Cl)c2O)cc1 [1n] sits?
Response: false

Request: Input Cc1ccc(O)c(C=Nc2ccc(C(=O)O)cc2)c1 [1g] ; condition: MIC strictly below 60 µM. Does it hold?
Response: false

---

# System: Staphylococcus epidermidis H 6966/08
# Experimental details: Antibacterial microdilution broth method, S. epidermidis
# Assay type: cell-based
# Condition details: Staphylococcus epidermidis, H6966/08; S. epidermidis; 48 h incubation; read-out: MIC SE 48 h
Measurement name: MIC (µM)
Report only the number, with the unit µM understood.

Request: Specify measured MIC for O=C(O)c1ccc(N=Cc2cccc(Cl)c2O)cc1 .
Response: 500

Request: Retrieve MIC measured for O=C(O)c1ccc(N=Cc2cc(Cl)ccc2O)cc1 and print it.
Response: 62.5

Request: State its MIC for this compound: O=C(O)c1ccc(N=Cc2cc(Cl)cc(Br)c2O)cc1
Response: 31.2

---

# System: Trichosporon asahii 1188
# Experimental details: Antifungal microdilution broth method, T. asahii
# Format: cell-based
# Condition details: 24 h, read-out: MIC TA 24 h
Consider the following molecules; for each one, report its MIC.
Kindly provide the numeric value in µM only, without the unit symbol.

Request: Provide one value: measured MIC of O=C(O)c1ccc(N=Cc2cc(Cl)cc(I)c2O)cc1 [1p]
Response: 7.81

Request: Look up MIC of O=C(O)c1ccc(N=Cc2ccc([N+](=O)[O-])o2)cc1 [1r] and report it.
Response: 500

Request: Answer with the recorded MIC of O=C(O)c1ccc(N=Cc2cccc(Cl)c2O)cc1 [1m] only.
Response: 125

Request: Please give measured MIC of the following entry: O=C(O)c1ccc(N=Cc2cc(Cl)cc(Cl)c2O)cc1 [1n]
Response: 125

Request: Identify MIC associated with the molecule O=C(O)c1ccc(N=Cc2cc(I)cc(I)c2O)cc1 [1q]
Response: 15.6

Request: Read the entry O=C(O)c1ccc(N=Cc2cc(Cl)cc(Br)c2O)cc1 [1o] and write its reported MIC.
Response: 31.2

Request: Output measured MIC for this item: O=C(O)c1ccc(N=Cc2cc([N+](=O)[O-])ccc2O)cc1 [1f]
Response: 500

---

Would you mind telling me the reported MIC of each entry?
# Tested on: Staphylococcus epidermidis H 6966/08
# Experimental details: Antibacterial microdilution broth method, S. epidermidis
# Type: cell-based
# Condition details: Staphylococcus epidermidis, H6966/08; S. epidermidis; 48 h incubation; read-out: MIC SE 48 h
Give just the number in µM; leave the unit off.

Request: // fetch MIC for COc1ccc(O)c(C=Nc2ccc(C(=O)O)cc2)c1 ; system: Staphylococcus epidermidis H 6966/08
Response: 500

Request: Write down the reported MIC (system: Staphylococcus epidermidis H 6966/08) of O=C(O)c1ccc(N=Cc2cc([N+](=O)[O-])ccc2O)cc1
Response: 250

Request: Fetch value of MIC on Staphylococcus epidermidis H 6966/08 for O=C(O)c1ccc(N=Cc2cc(I)cc(I)c2O)cc1 .
Response: 62.5

Request: Provide measured MIC on Staphylococcus epidermidis H 6966/08 for O=C(O)c1ccc(N=Cc2cc(I)ccc2O)cc1 please.
Response: 62.5

Request: Enter measured MIC, system Staphylococcus epidermidis H 6966/08, for the compound shown: O=C(O)c1ccc(N=Cc2cc(Br)ccc2O)cc1
Response: 62.5

Request: // output MIC; input O=C(O)c1ccc(N=Cc2cc(Cl)cc(I)c2O)cc1 ; system Staphylococcus epidermidis H 6966/08
Response: 31.2

Request: Give MIC; test system Staphylococcus epidermidis H 6966/08; compound O=C(O)c1ccc(N=Cc2ccc([N+](=O)[O-])o2)cc1
Response: 125

Request: Look up and report MIC, with Staphylococcus epidermidis H 6966/08 as system, for Cc1ccc(O)c(C=Nc2ccc(C(=O)O)cc2)c1
Response: 250

---

Would you kindly list MIC KP-E 48 h for each of these compounds?
# Test system: ESBL-positive Klebsiella pneumoniae J 14368/08
# Condition details: 48 h

Request: Answer with reported MIC KP-E 48 h of O=C(O)c1ccc(N=Cc2ccc(O)cc2)cc1
Response: >500 µM

Request: // fetch MIC KP-E 48 h given entry O=C(O)c1ccc(NCc2ccccc2O)cc1 [1u, 4-[(2-Hydroxybenzyl)amino]benzoic acid]
Response: >500 µM

Request: Report MIC KP-E 48 h, nothing else, for this compound: CC(C)(C)c1ccc(O)c(C=Nc2ccc(C(=O)O)cc2)c1
Response: >500 µM

Request: For the compound O=C(O)c1ccc(N=Cc2cc([N+](=O)[O-])ccc2O)cc1 , give its measured MIC KP-E 48 h value.
Response: >500 µM

Request: Give the measured MIC KP-E 48 h for O=C(O)c1ccc(N=Cc2ccc(Cl)cc2O)cc1
Response: >500 µM

Request: # return recorded MIC KP-E 48 h for entry Cc1ccc(O)c(C=Nc2ccc(C(=O)O)cc2)c1
Response: >500 µM

Request: Supply MIC KP-E 48 h value. Item: COc1ccc(O)c(C=Nc2ccc(C(=O)O)cc2)c1
Response: >500 µM

Request: Return value of MIC KP-E 48 h for input O=C(O)c1ccc(N=Cc2cc(I)cc(I)c2O)cc1 , no commentary.
Response: 500 µM

Request: Consider the compound O=C(O)c1ccc(N=Cc2cc(Cl)ccc2O)cc1 and give its recorded MIC KP-E 48 h.
Response: >500 µM

Request: Identify MIC KP-E 48 h associated with the compound O=C(O)c1ccc(N=Cc2cc(Cl)cc(Br)c2O)cc1
Response: 500 µM

Request: Please look at this compound and report its MIC KP-E 48 h: O=C(O)c1ccc(N=Cc2cc(Cl)cc(Cl)c2O)cc1
Response: >500 µM

Request: Check the records and state MIC KP-E 48 h for O=C(O)c1ccc(N=Cc2cc(I)ccc2O)cc1
Response: >250 µM

Request: Tell me measured MIC KP-E 48 h for Nc1ccc(C(=O)O)cc1 please.
Response: >500 µM

Request: Quote MIC KP-E 48 h reported for O=C(O)c1ccc(N=Cc2ccccc2O)cc1 please.
Response: >500 µM

Request: Recall and state the measured MIC KP-E 48 h for O=C(O)c1ccc(N=Cc2ccc([N+](=O)[O-])o2)cc1 .
Response: 500 µM

Request: Item O=C(O)c1ccc(N=Cc2cccc(Cl)c2O)cc1 : provide MIC KP-E 48 h
Response: >500 µM

Request: # return recorded MIC KP-E 48 h for entry O=C(O)c1ccc(N=Cc2cc(O)ccc2O)cc1
Response: 500 µM

Request: Identify the reported MIC KP-E 48 h for the following entry. COc1ccccc1C=Nc1ccc(C(=O)O)cc1
Response: >500 µM

Request: Kindly indicate its recorded MIC KP-E 48 h. Item: O=C(O)c1ccc(N=Cc2cc(Cl)cc(I)c2O)cc1
Response: 125 µM

Request: Using known records, supply MIC KP-E 48 h for O=C(O)c1ccc(N=Cc2c(O)cccc2Cl)cc1
Response: >500 µM

Request: Give the reported MIC KP-E 48 h for this compound. O=C(O)c1ccc(N=Cc2cc(Br)ccc2O)cc1
Response: >250 µM

Request: Return reported MIC KP-E 48 h. Input compound: O=C(O)c1ccc(N=Cc2cc(F)ccc2O)cc1
Response: >500 µM
